Biological target: Melanocortin receptor 4 (Homo sapiens)
Test: Effective concentration for cAMP accumulation relative to alpha-MSH at human MC4R
Type: functional
pEC50: −log10 of the molar value.
So basically: pEC50 at 6 or higher? That is Y. Lower than 6? That is N.

Could you verify whether the entry COc1ccc(-n2nc(Sc3ccc(Cl)cc3)cc(C(C)CCNC(=O)[C@H]3CNCC[C@@H]3c3ccccc3)c2=O)cc1 (stereo partly specified) shows pEC50 of no less than 6?
N

And the next one, COc1ccc(-n2nc(Sc3ccc(Cl)cc3)cc(CCC(C)NC(=O)[C@H]3CNCC[C@@H]3c3ccccc3)c2=O)cc1 (stereo partly specified) ?
Y

Next compound up: `COc1ccc(-n2nc(Sc3ccc(Cl)cc3)cc(CC[C@@H](C)NC(=O)[C@H]3CNC[C@@H]3c3ccccc3)c2=O)cc1`
Y

Next record, please: `COc1ccc(-n2nc(Sc3ccc(Cl)cc3)cc(CCCNC(=O)[C@H]3CNCC[C@@H]3c3ccccc3)c2=O)cc1`
Y

What about `COc1ccc(-n2nc(Sc3ccc(Cl)cc3)cc(CCC(=O)N[C@@H]3CCc4ccccc4NC3=O)c2=O)cc1` ?
N

* * *

Molecular target: Melanocortin receptor 4 (Homo sapiens)
Experiment: Effective concentration for cAMP accumulation relative to alpha-MSH at human MC4R
quantity: EC50

Query: EC50; subject: `COc1ccc(-n2nc(Sc3ccc(Cl)cc3)cc(CC[C@H](C)NC(=O)[C@H]3CNCC[C@@H]3c3ccccc3)c2=O)cc1`
1730 nM

For `COc1ccc(-n2nc(Sc3ccc(Cl)cc3)cc(CC[C@@H](C)NC(=O)[C@@H]3CNCC[C@H]3c3ccccc3)c2=O)cc1` then?
> 5000 nM

Then `COc1ccc(-n2nc(Sc3ccc(Cl)cc3)cc(CC[C@@H](C)NC(=O)[C@@H]3CNCC[C@@H]3c3ccccc3)c2=O)cc1` ?
> 5000 nM

For `COc1ccc(-n2nc(Sc3ccc(Cl)cc3)cc(CCCNC(=O)[C@H]3CCNC[C@@H]3c3ccccc3)c2=O)cc1` then?
> 5000 nM

And then `COc1ccc(-n2nc(Sc3ccc(Cl)cc3)cc(CC[C@@H](C)NC(=O)[C@H]3CNC[C@@H]3c3ccccc3)c2=O)cc1` , what is it?
250 nM

Try this compound next: `COc1ccc(-n2nc(Sc3ccc(Cl)cc3)cc(CC[C@@H](C)NC(=O)[C@H]3CNCC[C@@H]3c3ccccc3)c2=O)cc1`
177 nM

Moving on to `COc1ccc(-n2nc(Sc3ccc(Cl)cc3)cc(CC[C@@H](C)NC(=O)[C@H]3CNCC[C@H]3c3ccccc3)c2=O)cc1`
4050 nM

* * *

Task for the reader: assign each of the following compounds its reported Max.
Molecular target: Melanocortin receptor 4 (Homo sapiens, UniProt P32245)
Sequence (P32245 whole entry): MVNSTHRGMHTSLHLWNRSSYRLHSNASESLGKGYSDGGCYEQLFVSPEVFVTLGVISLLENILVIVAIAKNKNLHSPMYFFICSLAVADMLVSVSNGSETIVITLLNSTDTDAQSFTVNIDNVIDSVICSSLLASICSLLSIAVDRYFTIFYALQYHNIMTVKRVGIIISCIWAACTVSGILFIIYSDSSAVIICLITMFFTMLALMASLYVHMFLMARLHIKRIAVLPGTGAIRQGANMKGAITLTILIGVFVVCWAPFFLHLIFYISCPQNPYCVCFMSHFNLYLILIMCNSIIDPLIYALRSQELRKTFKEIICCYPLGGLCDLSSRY
Assay: Percentage of cAMP accumulation at 10 uM of compound relative to alpha-MSH, at human MC4R
Format: functional
Give just the numeric value; % need not be written.

Returns the measured Max for the input compound. Input: `COc1ccc(-n2nc(Sc3ccc(Cl)cc3)cc(CC[C@H](C)NC(=O)[C@H]3CNCC[C@H]3c3ccccc3)c2=O)cc1`
13

Try the compound `COc1ccc(-n2nc(Sc3ccc(Cl)cc3)cc(CCC(=O)NCCOc3ccccc3)c2=O)cc1`
15

Would you mind doing `COc1ccc(-n2nc(Sc3ccc(Cl)cc3)cc(CC[C@@H](C)NC(=O)[C@H]3CNCC[C@H]3c3ccccc3)c2=O)cc1` as well?
54

Please answer likewise for `COc1ccc(-n2nc(Sc3ccc(Cl)cc3)cc(CC[C@@H](C)NC(=O)[C@@H]3CNCC[C@H]3c3ccccc3)c2=O)cc1`
32

# iterate: `COc1ccc(-n2nc(Sc3ccc(Cl)cc3)cc(CC[C@H](C)NC(=O)[C@@H]3CNCC[C@H]3c3ccccc3)c2=O)cc1`
5

Another compound to look at: `COc1ccc(-n2nc(Sc3ccc(Cl)cc3)cc(CC[C@@H](C)NC(=O)[C@H]3CNCC[C@@H]3c3ccccc3)c2=O)cc1`
77

// query: `COc1ccc(-n2nc(Sc3ccc(Cl)cc3)cc(CC[C@@H](C)NC(=O)[C@H]3CNC[C@@H]3c3ccccc3)c2=O)cc1`
103

Entry to check: COc1ccc(-n2nc(Sc3ccc(Cl)cc3)cc(CCC(=O)NC3CCCCNC3=O)c2=O)cc1 (configuration not stated)
0

Next: `COc1ccc(-n2nc(Sc3ccc(Cl)cc3)cc(CC[C@H](C)NC(=O)[C@@H]3CNCC[C@@H]3c3ccccc3)c2=O)cc1`
12

Next up: `COc1ccc(-n2nc(Sc3ccc(Cl)cc3)cc(CC[C@@H](C)NC(=O)[C@@H]3CNCC[C@@H]3c3ccccc3)c2=O)cc1`
38

Also, `COc1ccc(-n2nc(Sc3ccc(Cl)cc3)cc(CC[C@@H](C)NC(=O)[C@H]3CCNC[C@@H]3c3ccccc3)c2=O)cc1` please.
85

Another compound: `COc1ccc(-n2nc(Sc3ccc(Cl)cc3)cc(CC[C@H](C)NC(=O)[C@H]3CNCC[C@@H]3c3ccccc3)c2=O)cc1`
65
